ASSAYED TARGET: Glutamate receptor 1 (Homo sapiens)
Sequence (P42261 whole entry): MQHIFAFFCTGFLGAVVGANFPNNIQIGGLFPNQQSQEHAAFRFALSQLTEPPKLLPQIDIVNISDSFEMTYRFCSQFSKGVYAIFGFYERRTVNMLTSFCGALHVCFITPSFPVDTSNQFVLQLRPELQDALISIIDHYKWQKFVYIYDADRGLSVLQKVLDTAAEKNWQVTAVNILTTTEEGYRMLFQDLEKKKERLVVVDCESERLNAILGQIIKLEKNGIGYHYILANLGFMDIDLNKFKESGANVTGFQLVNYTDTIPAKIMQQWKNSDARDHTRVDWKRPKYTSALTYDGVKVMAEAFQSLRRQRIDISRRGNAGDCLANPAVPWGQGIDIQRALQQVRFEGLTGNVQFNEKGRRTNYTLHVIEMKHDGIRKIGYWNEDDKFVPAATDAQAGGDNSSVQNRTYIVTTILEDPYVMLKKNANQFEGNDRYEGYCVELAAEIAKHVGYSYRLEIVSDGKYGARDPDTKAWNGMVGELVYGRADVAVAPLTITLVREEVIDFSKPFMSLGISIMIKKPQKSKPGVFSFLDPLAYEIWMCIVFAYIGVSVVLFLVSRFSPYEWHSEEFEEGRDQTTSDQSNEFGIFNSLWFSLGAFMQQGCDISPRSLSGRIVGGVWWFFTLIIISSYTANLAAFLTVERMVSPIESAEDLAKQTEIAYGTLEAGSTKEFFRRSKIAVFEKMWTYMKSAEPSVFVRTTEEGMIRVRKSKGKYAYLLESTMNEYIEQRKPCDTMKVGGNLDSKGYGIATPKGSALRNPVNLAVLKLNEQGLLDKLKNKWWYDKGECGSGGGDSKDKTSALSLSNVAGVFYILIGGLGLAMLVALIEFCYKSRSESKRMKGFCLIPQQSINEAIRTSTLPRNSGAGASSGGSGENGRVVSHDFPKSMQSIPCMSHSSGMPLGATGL
ASSAY NAME: Inhibition of GluR1 expressed in HEK cells
QUANTITY MEASURED: EC50 (nM)
One number for each entry, in nM.

Some entries whose results are on file:
>>> val("O=C1c2cc3c(cc2OC2CCCN12)OCCO3 (stereo unspecified)")
21000
>>> val("CC(C)S(=O)(=O)NCCCCCCCCCNS(=O)(=O)C(C)C")
660

Please report EC50 for every entry that follows.
1. CC(C)S(=O)(=O)NCCCCCCCCNS(=O)(=O)C(C)C
2. CC(CNS(=O)(=O)C(C)C)c1ccc(-c2ccc(C#N)cc2)cc1 (stereo unspecified)
3. CC(C)S(=O)(=O)NCCCCCCCNS(=O)(=O)C(C)C

1. 910
2. 5650
3. 2880
